- Test system: RKO p21 colon adenocarcinoma cells, uninduced (proliferating)
- Assay Text: Alamar Blue cell viability assay, RKO p21 uninduced (proliferating)
- Assay type: cell-based
- Condition: Homo sapiens; anti-proliferative/cytotoxic activity, 72 hours, without Ponasterone A; read-out: −log EC50 [mol/l] RKO p21 uninduced (proliferating) (converted)
Property Measured: EC50

>>> df
                                   molecule                            assayed_target  value_observed
0  CNCCN1C(=O)N2[C@H](c3ccccc3)c3[nH]c4ccc(OC)cc4c3C[C@@]2(C)C1=O (racemic)  RKO p21 colon adenocarcinoma cells, uninduced (proliferating)       ≤ 1000 nM
1  COc1ccc2[nH]c3c(c2c1)C[C@@]1(C)C(=O)N(CCCN(C)C(C)C)C(=O)N1[C@@H]3c1ccccc1 (racemic)  RKO p21 colon adenocarcinoma cells, uninduced (proliferating)       ≤ 1000 nM
2  COc1ccc2[nH]c3c(c2c1)C[C@@]1(C)C(=O)N(CCN2CC=CCC2)C(=O)N1[C@@H]3c1ccccc1 (racemic)  RKO p21 colon adenocarcinoma cells, uninduced (proliferating)       ≤ 1000 nM
